Hey, just so you know, these numbers are from patent US9376418B2.

target: recombinant human GST-SYK (Homo sapiens); construct: purchased Carna Biosciences 08-176; test: Homogeneous Time-Resolved Fluorescence (HTRF) assay for the recombinant human Syk enzyme; assay type: biochemical; settings: HTRF assay, recombinant human GST-SYK; IC50 given as class symbols; read-out: rhSYK Activity
recorded-metric: IC50

These recorded examples may help you get a feel for the data.
| compound | meas-value |
| --- | --- |
| CCOC(=O)CCc1ccc(-c2cc(C)cc(Nc3nccc(C4CC4)n3)c2)nc1 [Example 2.37] | 100 to 1000 nM |
| CCOC(=O)CCc1ccnc(-c2cc(C)cc(Nc3nccc(C4CC4)n3)c2)c1 [Example 2.39] | 100 to 1000 nM |
| COc1cncc(-c2cc(C)cc(Nc3nccc(C(F)(F)F)n3)c2)c1 [Example 2.58] | < 100 nM |

Data point: Cc1cc(Nc2nccc(C(F)(F)F)n2)cc(-c2ccc(CN3CCCC3=O)nc2)c1 [Example 14.1] ; IC50 = < 100 nM

Data point: O=C(O)CCc1cc(-c2cccc(Nc3nccc(C(F)(F)F)n3)c2)ccn1 [Example 2.129] ; IC50 = < 100 nM

Data point: Cc1cc(Nc2nccc(C(F)(F)F)n2)cc(-c2cncc(NCc3ccc[nH]c3=O)c2)c1 [Example 15.21] ; IC50 = < 100 nM

====

Biological target: recombinant human GST-SYK (Homo sapiens, UniProt P43405)
Construct: purchased Carna Biosciences 08-176
Assay: Homogeneous Time-Resolved Fluorescence (HTRF) assay for the recombinant human Syk enzyme
Assay type: biochemical
Details: HTRF assay, recombinant human GST-SYK; IC50 given as class symbols; read-out: rhSYK Activity
Experimental: Homogeneous Time-Resolved Fluorescence (HTRF) Assay for the Recombinant Human Syk Enzyme A recombinant GST-hSYK fusion protein was used to measure potency of compounds to inhibit human Syk activity. […] The resulting HTRF signal was measured after 30 minutes on an EnVision (Perkin-Elmer) reader using a time-resolved fluorescence protocol.
IC50: recorded values

| compound | recorded-metric | meas-value |
| --- | --- | --- |
| Cc1cc(Nc2nccc(C(F)(F)F)n2)cc(-c2ccc(N[C@@H](C(=O)O)C(C)C)nc2)c1 | IC50 | < 100 nM |

Data point: `Cc1cc(Nc2nccc(C(F)(F)F)n2)cc(-c2ccc(CN3CCNC3=O)nc2)c1` ; IC50 = < 100 nM

Data point: `COc1ccc(-c2cc(C)cc(Nc3nccc(C(F)(F)F)n3)c2)cn1` ; IC50 = 100 to 1000 nM

Data point: Cc1cc(Nc2nccc(C(F)(F)F)n2)cc(-c2ccc(C(=O)N3CCOC(CCO)C3)nc2)c1 (stereo not shown) ; IC50 = < 100 nM

====

Biological target: recombinant human GST-SYK (Homo sapiens, UniProt P43405)
Construct: purchased Carna Biosciences 08-176
Assay: Homogeneous Time-Resolved Fluorescence (HTRF) assay for the recombinant human Syk enzyme
Type: biochemical
Conditions: HTRF assay, recombinant human GST-SYK; IC50 given as class symbols; read-out: rhSYK Activity
Protocol: Homogeneous Time-Resolved Fluorescence (HTRF) Assay for the Recombinant Human Syk Enzyme A recombinant GST-hSYK fusion protein was used to measure potency of compounds to inhibit human Syk activity. […] The resulting HTRF signal was measured after 30 minutes on an EnVision (Perkin-Elmer) reader using a time-resolved fluorescence protocol.
pIC50: −log10 of the molar value.
pIC50: recorded values

| compound | pIC50 |
| --- | --- |
| Cc1cc(Nc2nccc(C(F)(F)F)n2)cc(-c2ccnc(NC3COC3)c2)c1 | 6.00 to 7.00 |
| CC(=O)N1CCN(c2cc(-c3cc(C)cc(Nc4nccc(C(F)(F)F)n4)c3)ccn2)CC1 | > 7.00 |
| Cc1cc(Nc2nccc(C(F)(F)F)n2)cc(-c2ccnc(NC(C)(C)CO)c2)c1 | > 7.00 |

Data point: Cc1cc(Nc2nccc(C(F)(F)F)n2)cc(-c2ccc(C(C)(O)C(F)(F)F)nc2)c1 (stereo not shown) [Example 2.115] ; pIC50 = 6.00 to 7.00

====

target: recombinant human GST-SYK (Homo sapiens); construct: purchased Carna Biosciences 08-176; experiment: Homogeneous Time-Resolved Fluorescence (HTRF) assay for the recombinant human Syk enzyme; assay type: biochemical; conditions: HTRF assay, recombinant human GST-SYK; IC50 given as class symbols; read-out: rhSYK Activity
pIC50: −log10 of the molar value.
recorded-metric: pIC50

These recorded examples may help you get a feel for the data.
| compound | pIC50 |
| --- | --- |
| Cc1cc(Nc2nccc(C(F)(F)F)n2)cc(-c2ccc(C34CCC(C(=O)O3)C(C)(C)C4)nc2)c1 (single isomer, unassigned) [Example 9.9] | 6.00 to 7.00 |
| CNS(=O)(=O)CCNC(=O)c1ccc(-c2cc(C)cc(Nc3nccc(C(F)(F)F)n3)c2)cn1 | > 7.00 |
| Cc1cc(Nc2nccc(C(F)(F)F)n2)cc(-c2ccc(N3CSCC3C(=O)O)nc2)c1 (stereo not shown) | > 7.00 |

Observed pIC50, recombinant human GST-SYK (Homo sapiens), Cc1cc(Nc2nccc(C(F)(F)F)n2)cc(-c2ccc(C(C)(O)C(F)(F)F)nc2)c1 (stereo not shown) [Example 2.76] : 6.00 to 7.00

====

molecular target: recombinant human GST-SYK (Homo sapiens); construct: purchased Carna Biosciences 08-176; assay: Homogeneous Time-Resolved Fluorescence (HTRF) assay for the recombinant human Syk enzyme; format: biochemical; details: HTRF assay, recombinant human GST-SYK; IC50 given as class symbols; read-out: rhSYK Activity
recorded-metric: IC50

| compound | recorded-metric | meas-value |
| --- | --- | --- |
| Cc1cc(Nc2nccc(C)n2)cc(-c2ccc(C(C)(O)[C@H]3CC[C@H](C(=O)O)CC3)nc2)c1 (some centres unmarked) [Example 9.23] | IC50 | < 100 nM |
| Cc1cc(Nc2nccc(C(F)(F)F)n2)cc(-c2ccnc([C@]3(O)CC[C@@H](O)CC3)c2)c1 [Example 9.3] | IC50 | < 100 nM |

Data point: CCCCOC(=O)C1CCC(C(C)(O)c2ccc(-c3cc(C)cc(Nc4ncc(Cl)c(C)n4)c3)cn2)CC1 (single isomer, unassigned) [Example 9.53] ; IC50 = 100 to 1000 nM

====

target: recombinant human GST-SYK (Homo sapiens, UniProt P43405); construct: purchased Carna Biosciences 08-176; assay: Homogeneous Time-Resolved Fluorescence (HTRF) assay for the recombinant human Syk enzyme; format: biochemical; settings: HTRF assay, recombinant human GST-SYK; IC50 given as class symbols; read-out: rhSYK Activity
IC50: recorded values

| molecule | IC50 |
| --- | --- |
| Cc1cc(Nc2nccc(C(F)(F)F)n2)cc(-c2ccnc(NCC3CCC(=O)N3)c2)c1 (centres unmarked) [Example 15.83] | < 100 nM |

Data point: Cc1cc(Nc2nccc(C(F)(F)F)n2)cc(-c2ccc(O)nc2)c1 [Example 4.8] ; IC50 = 100 to 1000 nM

Data point: Cc1cc(Nc2nccc(C(F)(F)F)n2)cc(-c2cncc(C(O)(CO)CO)c2)c1 [Example 9.80] ; IC50 = < 100 nM

Data point: FC(F)(F)c1ccnc(Nc2cc(-c3cccc(N4CCOCC4)n3)cc(N3CCOCC3)c2)n1 [Example 1.3] ; IC50 = < 100 nM

Data point: CNC(=O)C1CCCN1c1ccc(-c2cc(C)cc(Nc3nccc(C(F)(F)F)n3)c2)cn1 (centres unmarked) [Example 7.65] ; IC50 = 100 to 1000 nM

====

target: recombinant human GST-SYK (Homo sapiens, UniProt P43405); construct: purchased Carna Biosciences 08-176; assay: Homogeneous Time-Resolved Fluorescence (HTRF) assay for the recombinant human Syk enzyme; type: biochemical; settings: HTRF assay, recombinant human GST-SYK; IC50 given as class symbols; read-out: rhSYK Activity
pIC50: −log10 of the molar value.
pIC50: recorded values

These recorded examples may help you get a feel for the data.
| compound | pIC50 |
| --- | --- |
| Cc1cc(Nc2nccc(C(F)(F)F)n2)cc(-c2ccc(N[C@H](CO)C(=O)O)nc2)c1 | > 7.00 |
| Cc1cc(Nc2nccc(C(F)(F)F)n2)cc(-c2ccc(N[C@@H](Cc3ccccc3)C(=O)O)nc2)c1 [Example 7.155] | > 7.00 |
| Cc1cc(Nc2nccc(C(F)(F)F)n2)cc(-c2ccc(N[C@@H](CCS(C)(=O)=O)C(=O)O)nc2)c1 | > 7.00 |
| Cc1cc(Nc2nccc(C3CC3)n2)cc(-c2cncc(C(O)(CO)CO)c2)c1 | 5.00 to 6.00 |
| CNC(=O)CCNc1ccc(-c2cc(C)cc(Nc3nccc(C(F)(F)F)n3)c2)cn1 | > 7.00 |
| Cc1cc(Nc2nccc(C(F)(F)F)n2)cc(-c2ccnc(Br)c2)c1 | 6.00 to 7.00 |
| CC1(C)CC(O)(c2ccc(-c3cc(Nc4nccc(C(F)(F)F)n4)cc(C(F)F)c3)cn2)CCC1C(=O)O (single isomer, unassigned) | > 7.00 |
| CC(=O)NCCN(C)c1cc(-c2cc(C)cc(Nc3nccc(C(F)(F)F)n3)c2)ccn1 | 6.00 to 7.00 |
| Cc1cc(Nc2nccc(C(F)(F)F)n2)cc(-c2ccc(N[C@H]3CC[C@@H](C(=O)O)CC3)nc2)c1 | > 7.00 |
| Cc1cc(Nc2nccc(C(F)(F)F)n2)cc(-c2ccnc(NCc3cn(C)cn3)c2)c1 | 6.00 to 7.00 |

Data point: `Cc1cc(Nc2nccc(C(F)(F)F)n2)cc(-c2ccc(NC3(C(=O)O)CCC3)nc2)c1` ; pIC50 = > 7.00

Data point: CCC(CO)Nc1ccc(-c2cc(C)cc(Nc3nccc(C(F)(F)F)n3)c2)cn1 (stereo not drawn) ; pIC50 = > 7.00

Data point: `Cc1cc(Nc2nccc(C(F)(F)F)n2)cc(-c2ccc(NC[C@H]3CC[C@H](C(=O)O)CC3)nc2)c1` ; pIC50 = > 7.00

Data point: `Cc1cc(Nc2nccc(C(F)(F)F)n2)cc(-c2ccc(N[C@H](Cc3c[nH]c4ccccc34)C(=O)O)nc2)c1` ; pIC50 = > 7.00

Data point: `Cc1cc(Nc2nccc(C(F)(F)F)n2)cc(-c2cncc([C@]3(O)CC[C@H](C(=O)O)CC3)c2)c1` ; pIC50 = > 7.00
